Molecular target: ATP-dependent DNA helicase Q1 (Homo sapiens) (UniProt P46063)
Sequence (P46063 whole entry, looked up): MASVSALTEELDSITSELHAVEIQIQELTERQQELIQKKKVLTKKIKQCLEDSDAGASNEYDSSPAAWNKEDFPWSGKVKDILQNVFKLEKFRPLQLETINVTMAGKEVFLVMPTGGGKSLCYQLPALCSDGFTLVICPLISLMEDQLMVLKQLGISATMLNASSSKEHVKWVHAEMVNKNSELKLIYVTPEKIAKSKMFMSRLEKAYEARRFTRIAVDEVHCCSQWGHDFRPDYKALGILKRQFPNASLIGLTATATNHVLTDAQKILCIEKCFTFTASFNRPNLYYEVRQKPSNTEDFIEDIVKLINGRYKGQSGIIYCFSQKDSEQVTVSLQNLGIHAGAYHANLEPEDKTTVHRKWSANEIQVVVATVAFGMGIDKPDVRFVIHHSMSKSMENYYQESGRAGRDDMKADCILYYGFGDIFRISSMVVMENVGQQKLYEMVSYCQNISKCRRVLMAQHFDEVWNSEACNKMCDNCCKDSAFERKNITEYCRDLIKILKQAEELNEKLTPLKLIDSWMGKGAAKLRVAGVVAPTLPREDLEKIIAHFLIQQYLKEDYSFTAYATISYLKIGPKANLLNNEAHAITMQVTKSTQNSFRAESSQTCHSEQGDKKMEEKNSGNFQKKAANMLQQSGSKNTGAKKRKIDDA
Assay: qHTS Validation Assay for Inhibitors of RecQ-Like Dna Helicase 1 (RECQ1) (AID 2353)
Conditions: recombinant RECQ1 helicase DNA unwinding assay; series mostly up to 25.6 µM
Active and inactive are the calls of the source. Calls come from the whole dose curve; as a rule, active = well fitted inhibition curve with a large enough effect; inconclusive = small, poorly fitted or top-dose-only effect; inactive = flat fitted curve, though single readings scatter.
Possible outcomes: label 1 (active), label 0 (inactive)

| COMPOUND | LABEL VALUE |
| --- | --- |
| CC(N)(Cc1ccc(O)cc1)C(=O)O (stereo not drawn) | label 1 |
| CC(N)=NCCCC[C@@H](N)C(=O)O | label 0 |
| c1ccc2c(c1)CC(N1CCN(c3cccc4c3OCCO4)CC1)C2 | label 0 |
| CC(N)(C(=O)O)c1ccc(C(=O)O)cc1 (stereo not drawn) | label 0 |
| COC1(C2=NCCN2)COc2ccccc2O1 (stereo not drawn) | label 0 |
| CC(=O)N[C@@H](Cc1c[nH]c2ccccc12)C(=O)OCc1cc(C(F)(F)F)cc(C(F)(F)F)c1 | label 0 |
| NC(Cc1cccc(-c2ccccc2CP(=O)(O)O)c1)C(=O)O (stereo not drawn) | label 0 |
| N[C@@H](Cc1ccc(F)cc1)C(=O)O | label 0 |
| CCCCCCCCCCCCCCC[C@H](O)[C@H](N)CO | label 0 |
| NCC(O)c1ccc(O)c(O)c1 (stereo not drawn) | label 0 |
| CC(C)(C)NCC(O)COc1cccc2[nH]c(=O)[nH]c12 (stereo not drawn) | label 0 |
| C[C@@H](NCCc1ccc(O)cc1)[C@@H](O)c1ccc(O)cc1 | label 0 |
| COc1cc(CC(=O)O)ccc1O | label 0 |
